- Tested on: Fer (mouse);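 also: 11-residue human phosphosite peptides and single-mutation variants displayed on the E. coli surface, counted by deep sequencing, each peptide's frequency after selection divided by its frequency in the unselected input library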;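 also: frequency after pTyr selection over input frequency; kinase dosed for 20-30% of maximal phosphorylation in three min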
- Test summary: phosphorylation enrichment, bacterial display (enrichment ratio); higher = better substrate or ligand; peptides without Tyr show the background
Categories are defined by ranges of phosphorylation enrichment, namely Low: < 0.5; Mid: ≥ 0.5 and < 0.7; High: ≥ 0.7

DPTFGYEDFTR [SESN2_Y323] ... Low
VKANTYEKFWP [GATM_Y100_YF] ... Mid
PKGTGCIKTEL [STAT1_Y701_Y701C] ... High
NGQALYAACQT [XDH_Y1092_V1091L] ... High
LLANAYIYVVQ [L1CAM_Y418] ... Mid
HDHFGYRQSVT [CD55_Y245_R240H_YF] ... Low

Each sequence maps to one class by phosphorylation enrichment. Which class for CRVEPYGENFN [APOA4_Y310_R305C] ? Mid

How about SDYYAYSPVRE [H6PD_Y449] ? High

How about SLIDMYSEVPD [OPA1_Y268_L272P] ? Low
